The reported numbers originate from patent US4880817A.

- Tested on: adult mongrel dogs
- methodSummary: Renal vasodilating activity in anesthetized dogs
- Type: in vivo, mongrel dog
- condition: Canis lupus familiaris, dose 6.2 mpk, relative to controls, read-out: HR: percent change in heart rate
- Method: Goldberg et al., J. Pharmacol. Exp. Ther., 163, 188 (1968), performed an investigation of the structural requirements for dopamine-like renal vasodilation of phenethylamines and apomorphine. […] Adult mongrel dogs were anesthetized and surgically prepared for electromagnetic measurement of renal artery blood flow. […] Heart rate was monitored with a cardiotachometer. Renal vascular resistance was calculated as the ratio of mean arterial blood pressure to renal artery blood flow. […]
Can you tell me change in vivo at 6.2 mg/kg for the items I'm about to list?
Numbers only, in %.

In [3]: df
Out[3]:
                                   compound                 endpointname  assayvalue
0  CCCCCC(=O)Nc1c(OC(=O)N(CC)CC)nc(C)c2cc(OC)c(OC)cc12 [Cmpd 81]  change in vivo at 6.2 mg/kg          -8
1  COc1cc2c(C)nc(OC(C)=O)c([N+](=O)[O-])c2cc1OC [Cmpd 2]  change in vivo at 6.2 mg/kg          -2
2  COc1cc2c(C)nc(OS(=O)(=O)N(C)C)c([N+](=O)[O-])c2cc1OC [Cmpd 25]  change in vivo at 6.2 mg/kg          32
3  COc1cc2c(C)nc(OC(=O)c3ccc(Cl)cc3)c([N+](=O)[O-])c2cc1OC [Cmpd 15]  change in vivo at 6.2 mg/kg           3
4  CCOc1cc2c(C)nc(OC(=O)C(C)C)c([N+](=O)[O-])c2cc1OC [Cmpd 5]  change in vivo at 6.2 mg/kg          36
5  COc1cc2c(C)nc(OC(=O)C(C)(C)C)c([N+](=O)[O-])c2cc1OC [Cmpd 12]  change in vivo at 6.2 mg/kg          12
6  CCOc1cc2c(C)nc(OC(=O)C(C)(C)C)c([N+](=O)[O-])c2cc1OC [Cmpd 9]  change in vivo at 6.2 mg/kg           0
7  CCOc1cc2c([N+](=O)[O-])c(OC(C)=O)nc(C)c2cc1OC [Cmpd 21]  change in vivo at 6.2 mg/kg          38

Each compound below has a recorded value; state its change in vivo at 6.2 mg/kg.
1. CCCCOc1cc2c(C)nc(OC(C)=O)c([N+](=O)[O-])c2cc1OC [Cmpd 22]
2. CCOc1cc2c(C)nc(OS(=O)(=O)N(C)C)c([N+](=O)[O-])c2cc1OC [Cmpd 26]
3. CCOc1cc2c(C)nc(OS(C)(=O)=O)c([N+](=O)[O-])c2cc1OC [Cmpd 6]
4. CCC(=O)Nc1c(OC(=O)CC)nc(C)c2cc(OC)c(OC)cc12 [Cmpd 33]

output:
[25, 0, -10, -9]

Each compound below has a recorded value; state its change in vivo at 6.2 mg/kg.
1. CCOc1cc2c(C)nc(OC(C)=O)c([N+](=O)[O-])c2cc1OC [Cmpd 3]
2. COc1cc2c(C)nc(OC(C)=O)c(N(C(C)=O)C(C)=O)c2cc1OC [Cmpd 17]

output:
[2, -12]

Each compound below has a recorded value; state its change in vivo at 6.2 mg/kg.
1. COc1cc2c(C)nc(OS(C)(=O)=O)c([N+](=O)[O-])c2cc1OC [Cmpd 16]
2. COc1cc2c(C)nc(OCOC(=O)C(C)(C)C)c([N+](=O)[O-])c2cc1OC [Cmpd 77]

output:
1. 19
2. 5

###

- System: adult mongrel dogs
- methodSummary: Renal vasodilating activity in anesthetized dogs
- Format: in vivo, mongrel dog
- condition: Canis lupus familiaris, dose 6.2 mpk, relative to controls, read-out: RVR: percent change in renal vascular resistance
Can you tell me change in vivo at 6.2 mg/kg for the items I'm about to list?
Give bare numbers, in %.

Solved entries (count: 3):
>>> df
                                inputsmiles  assayvalue
0  COc1cc2c(C)nc(OS(=O)(=O)N(C)C)c([N+](=O)[O-])c2cc1OC         -46
1  COc1cc2c(C)nc(OC(=O)c3ccc(Cl)cc3)c([N+](=O)[O-])c2cc1OC         -14
2  CCOc1cc2c(C)nc(OS(C)(=O)=O)c([N+](=O)[O-])c2cc1OC         -28

Each compound below has a recorded value; state its change in vivo at 6.2 mg/kg.
1. COc1cc2c(C)nc(OC(C)=O)c(N(C(C)=O)C(C)=O)c2cc1OC
2. COc1cc2c(C)nc(OCOC(=O)C(C)(C)C)c([N+](=O)[O-])c2cc1OC
3. CCOc1cc2c(C)nc(OS(=O)(=O)N(C)C)c([N+](=O)[O-])c2cc1OC
4. COc1cc2c(C)nc(OC(=O)C(C)(C)C)c([N+](=O)[O-])c2cc1OC

output:
1: -24; 2: -8; 3: -8; 4: -26

Each compound below has a recorded value; state its change in vivo at 6.2 mg/kg.
1. COc1cc2c(C)nc(OC(C)=O)c([N+](=O)[O-])c2cc1OC
2. CCOc1cc2c(C)nc(OC(=O)C(C)C)c([N+](=O)[O-])c2cc1OC

output:
-16
-36

Each compound below has a recorded value; state its change in vivo at 6.2 mg/kg.
1. CCC(=O)Nc1c(OC(=O)CC)nc(C)c2cc(OC)c(OC)cc12
2. CCOc1cc2c(C)nc(OC(C)=O)c([N+](=O)[O-])c2cc1OC

output:
1. -35
2. -41

###

- Test system: adult mongrel dogs
- methodSummary: Renal vasodilating activity in anesthetized dogs
- Assay type: in vivo, mongrel dog
- condition: Canis lupus familiaris, dose 1.2 mpk, relative to controls, read-out: RVR: percent change in renal vascular resistance
Can you tell me change in vivo at 1.2 mg/kg for the items I'm about to list?
Respond with the figure and its unit, in that order.

Solved entries (count: 4):
>>> print(df.to_string())
                                   molecule        testedsystem                 endpointname  assayvalue
0  C=CCNC(=O)Nc1c(OS(=O)(=O)N(C)C)nc(C)c2cc(OC)c(OC)cc12 [Cmpd 65]  adult mongrel dogs  change in vivo at 1.2 mg/kg        -22%
1  CCN(CC)C(=O)Oc1nc(C)c2cc(OC)c(OC)cc2c1NC(=O)Nc1ccc(OC)cc1 [Cmpd 51]  adult mongrel dogs  change in vivo at 1.2 mg/kg        -20%
2  C=CCNC(=O)N(C(=O)NCC=C)c1c(OC(=O)N(CC)CC)nc(C)c2cc(OC)c(OC)cc12 [Cmpd 49]  adult mongrel dogs  change in vivo at 1.2 mg/kg         -8%
3  COc1ccc(NC(=O)Nc2c(OC(C)=O)nc(C)c3cc(OC)c(OC)cc23)cc1 [Cmpd 32]  adult mongrel dogs  change in vivo at 1.2 mg/kg         -4%

input: // fetch adult mongrel dogs change in vivo at 1.2 mg/kg for CCCCNC(=O)Nc1c(OS(=O)(=O)N(C)C)nc(C)c2cc(OC)c(OC)cc12 [Cmpd 64]
output: -9%

###

- Test system: adult mongrel dogs
- methodSummary: Renal vasodilating activity in anesthetized dogs
- Assay type: in vivo, mongrel dog
- condition: Canis lupus familiaris, read-out: HR: percent change in heart rate, dose 1.2 mpk, relative to controls
- Method: Goldberg et al., J. Pharmacol. Exp. Ther., 163, 188 (1968), performed an investigation of the structural requirements for dopamine-like renal vasodilation of phenethylamines and apomorphine. […] Adult mongrel dogs were anesthetized and surgically prepared for electromagnetic measurement of renal artery blood flow. […] Heart rate was monitored with a cardiotachometer. Renal vascular resistance was calculated as the ratio of mean arterial blood pressure to renal artery blood flow. […]
endpointName: change in vivo at 1.2 mg/kg (%)
Give bare numbers, in %.

Solved entries (count: 3):
>>> df
                                   molecule                 endpointname  unitannotation  assayvalue
0  CCCCNC(=O)Nc1c(OC(=O)N2CCN(C(=O)OC(C)(C)C)CC2)nc(C)c2cc(OC)c(OC)cc12 [Cmpd 76]  change in vivo at 1.2 mg/kg               %          -9
1  CCCCNC(=O)Nc1c(OC(=O)N(CC)CC)nc(C)c2cc(OCC)c(OC)cc12 [Cmpd 45]  change in vivo at 1.2 mg/kg               %          11
2  C=CCNC(=O)Nc1c(OC(=O)N(CC)CC)nc(C)c2cc(OC)c(OC)cc12 [Cmpd 50]  change in vivo at 1.2 mg/kg               %          -2

Each molecule below has a recorded value; state its change in vivo at 1.2 mg/kg.
1. C=CCNC(=O)Nc1c(OC(=O)N(C(C)C)C(C)C)nc(C)c2cc(OC)c(OC)cc12 [Cmpd 62]
2. CCCCNC(=O)Nc1c(OC(=O)N2CCCC2)nc(C)c2cc(OC)c(OC)cc12 [Cmpd 55]
3. CCCCNC(=O)Nc1c(OC(=O)N(c2ccccc2)c2ccccc2)nc(C)c2cc(OC)c(OC)cc12 [Cmpd 57]
4. C=CCNC(=O)Nc1c(OC(=O)N(c2ccccc2)c2ccccc2)nc(C)c2cc(OC)c(OC)cc12 [Cmpd 60]
5. CCCCNC(=O)Nc1c(OC(=O)N2CCNCC2)nc(C)c2cc(OC)c(OC)cc12 [Cmpd 80]

output:
[0, 2, 7, 8, 2]
